TARGET UNDER TEST: Fibroblast growth factor 22 (Homo sapiens) (UniProt Q9HCT0)
Sequence (Q9HCT0 whole entry, looked up): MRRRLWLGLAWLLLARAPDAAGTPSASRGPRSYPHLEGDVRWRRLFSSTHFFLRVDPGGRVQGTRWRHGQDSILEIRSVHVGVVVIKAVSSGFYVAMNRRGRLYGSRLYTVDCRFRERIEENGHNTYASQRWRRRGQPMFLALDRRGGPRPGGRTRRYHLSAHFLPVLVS
EXPERIMENT NOTES: binders of human FGF22 protein, primary screen, FGF22 synaptogenesis inhibitor project, biophysical, thermal shift, single point (AID 651658)
PROTOCOL CONDITIONS: recombinant FGF22 thermal shift, SYPRO orange fluorescence; at 9.99 µM; stronger effect = higher value; percent of sucrose octasulfate shift, DMSO zero
About 5,100 (1.5%) of roughly 340,000 compounds were called active. What follows is part of a selection rich in actives, with near analogues and random picks from the rest.
QUANTITY KIND: activity (Tm shift, normalised) (%)
Give the quantity in %, number only.

Task: For `COc1ccc(S(=O)(=O)Nc2ccc3c(c2)C(=O)N([C@@H](C)CO)C[C@H](C)[C@@H](CN(C)C(=O)Nc2ccc4c(c2)OCO4)OCCCC[C@@H](C)O3)cc1` , what is its reported activity (Tm shift, normalised)?
Output: 0.801

Task: Dear colleague, I am looking for the recorded activity (Tm shift, normalised) of the following molecule: `COc1cc(C=NNC(=O)c2cccnc2)ccc1OC(=O)c1ccccc1F`
Output: -0.02

Task: Query: activity (Tm shift, normalised); subject: `OC[C@H]1[C@H](c2ccc(-c3ccccc3F)cc2)[C@H]2CN(Cc3cncnc3)CCCCN21`
Output: 0.4

Task: Look up activity (Tm shift, normalised) for this molecule: `COc1ccc2c3c(n(C)c2c1)[C@H](CO)N(C(=O)NC(C)C)CC31CN(CC2CCCCC2)C1`
Output: -0.103

Task: // query activity (Tm shift, normalised) value for entry `Cc1noc(C)c1NC(=O)N(C)C[C@H]1OCCCC[C@@H](C)Oc2ccc(NC(=O)NC(C)C)cc2C(=O)N([C@H](C)CO)C[C@@H]1C`
Output: 0.234

Task: Dear colleague, I am looking for the recorded activity (Tm shift, normalised) of the following molecule: `C[C@H](CO)N1C[C@H](C)[C@@H](CN(C)CC2CC2)Oc2ccc(NC(=O)CCCN(C)C)cc2CC1=O`
Output: -0.128

* * *

TARGET UNDER TEST: Fibroblast growth factor 22 (Homo sapiens) (UniProt Q9HCT0)
EXPERIMENT NOTES: binders of human FGF22 protein, primary screen, FGF22 synaptogenesis inhibitor project, biophysical, thermal shift, single point (AID 651658)
PROTOCOL CONDITIONS: recombinant FGF22 thermal shift, SYPRO orange fluorescence; at 9.99 µM; percent of sucrose octasulfate shift, DMSO zero
The whole screen tested about 340,000 compounds, of which about 5,100 (1.5%) were called active.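 Rule for the calls: active = mean Tm shift, scaled 0 neutral to 100 positive control, at about 1.3% or above, every replicate too (limit read from the data); inconclusive = no clear call, values can overlap the other calls; inactive = the rest.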 Many of the other results were omitted from the sample, so actives are more common in it than they were.
Use one of these outcomes when replying: active, inactive

Task: Could you kindly confirm the outcome this assay logged for `CCCNC(=O)C[C@H]1CC[C@@H]2[C@H](COC[C@H](O)CN2S(=O)(=O)c2ccccc2F)O1` ?
Output: inactive

Task: Record lookup: outcome of this test for `N#Cc1c(NC(=O)CCCl)sc2c1CCCCC2` ?
Output: active

Task: Please share the test call associated with `CN(C)C(=O)C[C@H]1CC[C@H](NC(=O)NC2CCCC2)[C@@H](CO)O1` .
Output: inactive

Task: Which outcome did this test record for the compound `CO[C@@H]1CN(C)C(=O)c2ccc(NS(C)(=O)=O)cc2OC[C@H](C)N(C(=O)C2CC2)C[C@H]1C` ?
Output: inactive

Task: Dear all, I need the recorded test outcome for `CCN1CCN(CC(=O)Nc2sc3c(c2C#N)CCC3)CC1` , thank you.
Output: inactive

* * *

Please provide measured activity (Tm shift, normalised) for the entries that follow.
TARGET UNDER TEST: Fibroblast growth factor 22 (Homo sapiens) (UniProt Q9HCT0)
EXPERIMENT NOTES: binders of human FGF22 protein, primary screen, FGF22 synaptogenesis inhibitor project, biophysical, thermal shift, single point (AID 651658)
PROTOCOL CONDITIONS: recombinant FGF22 thermal shift, SYPRO orange fluorescence; at 9.99 µM; stronger effect = higher value; percent of sucrose octasulfate shift, DMSO zero
Hit rate of the full screen: of about 340,000 compounds, about 5,100 (1.5%) were called active. For the sample, actives were picked, then their nearest neighbours and some compounds at random.
Supply the numeric figure in %, leaving out any unit text.

Task: Suppose we examine the compound `O=C(C[C@H]1CC[C@@H](NC(=O)c2ccc(F)cc2)[C@@H](CO)O1)NCc1ccncn1` ; what activity (Tm shift, normalised) value has been reported?
Output: -0.132

Task: // returns reported activity (Tm shift, normalised) for input Cn1c2c(c(=O)n(C)c1=O)C(c1cccc(F)c1)C(C#N)=C(N)O2 (stereo not given)
Output: -0.167

Task: Value lookup for activity (Tm shift, normalised); key = `Cc1ccc2[nH]c(=O)c(CC(=O)O)c(-c3ccccc3)c2c1`
Output: -0.089

Task: Give its activity (Tm shift, normalised) value. Item: `COCC(=O)Nc1ccc2c(c1)C(=O)N(C)[C@@H]1CC[C@H](CC(=O)NCC3CC3)O[C@H]1CO2`
Output: 0.038

Task: If you can, please state the reported activity (Tm shift, normalised) value of `C/C=C/c1ccc([C@@H]2[C@H](CO)N(S(=O)(=O)Cc3ccccc3)C23CN(C(=O)C2CCOCC2)C3)cc1` .
Output: -0.098

Task: Requested read-out: activity (Tm shift, normalised). Entry: `Cc1ccc2[nH]c(=O)c(CN3CCCCC3)c(-c3ccccc3)c2c1`
Output: 43.2

Task: # activity (Tm shift, normalised) lookup, item `O=C(COC(=O)c1ccc(O)cc1O)NNC(=O)c1cccs1`
Output: 0.153

Task: Looking for the measured activity (Tm shift, normalised) of `CCC(=O)N1C[C@@H](C)[C@H](OC)CN(C)C(=O)c2ccc(NC(=O)COC)cc2OC[C@@H]1C` , can you help?
Output: 0.031

Task: Using the record for `Cc1ccc2c(Cl)c(C(=O)Nc3nn[nH]n3)sc2c1` , report its activity (Tm shift, normalised).
Output: -0.027

Task: Entry under review: CCOC(=O)C1=C(CC)OC(N)=C(C#N)C1c1ccc(F)cc1F (stereo not given) . Reported activity (Tm shift, normalised)?
Output: 43.8

Task: What measured activity (Tm shift, normalised) goes with `C[C@H]1CCCCO[C@@H](CN(C)Cc2ccccc2)[C@@H](C)CN([C@@H](C)CO)C(=O)c2cc(NC(=O)Cc3ccccc3)ccc2O1` ?
Output: -0.273

Task: Fill in: activity (Tm shift, normalised) of `O=C(Nc1ccccc1C(=O)Nc1ccncc1)c1ccc([N+](=O)[O-])cc1` is ___
Output: -0.016

Task: Tell me the measured activity (Tm shift, normalised) of COC(=O)C1=CN(c2c(C)cc(C)cc2C)C(N)=C(C#N)C1c1cccc(F)c1 (stereo not given) , please.
Output: -0.26

Task: State the recorded activity (Tm shift, normalised) for this entry: `C[C@@H]1CN([C@@H](C)CO)C(=O)c2cc(NS(=O)(=O)c3cn(C)cn3)ccc2O[C@@H]1CN(C)C(=O)NC1CCCCC1`
Output: -0.419

Task: Give its activity (Tm shift, normalised) value. Item: `CN(C)CC(=O)N[C@H]1CC[C@@H](CCNC(=O)C2CCCC2)O[C@@H]1CO`
Output: 0.021

* * *

TARGET UNDER TEST: Fibroblast growth factor 22 (Homo sapiens)
EXPERIMENT NOTES: binders of human FGF22 protein, primary screen, FGF22 synaptogenesis inhibitor project, biophysical, thermal shift, single point (AID 651658)
PROTOCOL CONDITIONS: recombinant FGF22 thermal shift, SYPRO orange fluorescence; at 9.99 µM; percent of sucrose octasulfate shift, DMSO zero
The campaign covered roughly 340,000 compounds. About 5,100 (1.5%) were called active.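 The calls were made as follows: active = mean Tm shift, scaled 0 neutral to 100 positive control, at about 1.3% or above, every replicate too (limit read from the data); inconclusive = no clear call, values can overlap the other calls; inactive = the rest.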 The entries come from a sample that favours actives as a whole.
Please reply with one of these outcomes: active, inactive

Task: Test call for this compound, please: `Cc1cc(=O)[nH]c(SCC(=O)Nc2ccc(Br)cc2)n1`
Output: inactive

Task: Given `O=C(Nc1ccccc1Cl)NC1(C(=O)N2CCOCC2)CCCCC1` , state the outcome it received in this test.
Output: inactive

Task: Outcome logged for `Cn1cc(Cl)c(C(=O)NNC(=S)Nc2cccc(Cl)c2)n1` in this assay:
Output: active

Task: # lookup: test call for `Cc1cccc(-c2ccc([C@@H]3[C@@H](CO)N4CCCCN(S(=O)(=O)c5cccs5)C[C@H]34)cc2)c1`
Output: inactive

Task: Could you please tell me the result logged for `C/C=C/c1cccc(-c2nc(C(=O)NCCN3CCCCC3)cc3c2[C@@H](CCO)N([S@](=O)C(C)(C)C)C3)c1` in this assay?
Output: inactive

Task: What is the recorded call for this compound in the test? `CCCC(=O)N1CC2(CCN(C(=O)C3CC3)CC2)c2c(n(C)c3cc(OC)ccc23)[C@H]1CO`
Output: inactive

Task: In this assay, the call recorded for `CCC(=O)N1[C@H](C(=O)OC)[C@@H](CO)[C@@H]2Cn3c(ccc(-c4cccc(F)c4)c3=O)[C@@H]21` was what?
Output: inactive

Task: Tell me the recorded outcome of this test for `Cc1cc(C)n(S(=O)(=O)c2cccc([N+](=O)[O-])c2)n1` .
Output: inactive

Task: Hello, I am checking results. What call was entered for `C[C@H](CO)N1C[C@H](C)[C@H](CN(C)S(=O)(=O)c2cccs2)Oc2c(NC(=O)Nc3ccc4c(c3)OCO4)cccc2C1=O` ?
Output: inactive

Task: Tell me the assay call for `CN1[C@H](C(=O)N2CCc3ccccc3C2)[C@@H](CO)[C@@H]2Cn3c(ccc(-c4cncnc4)c3=O)[C@@H]21` please.
Output: inactive

Task: Kindly provide the recorded test outcome for the following compound: `O=C(NCC[C@@H]1CC[C@@H](NC(=O)c2ccccc2F)[C@H](CO)O1)c1ccc2c(c1)OCO2`
Output: inactive

Task: GET /call?item= `COc1ccccc1-c1ccc2c(c1)O[C@@H](CN(C)C(=O)Nc1ccccc1)[C@H](C)CN([C@@H](C)CO)S2(=O)=O` returns the recorded outcome of this test.
Output: inactive

Task: Query: recorded result category for `CO[C@H]1CC[C@H]2CCN(C)C(=O)C[C@@H](c3ccccc3)CN(C)C(=O)c3cccc(C#N)c3OC[C@@H]1O2` in this test
Output: inactive

Task: Returns: the outcome recorded for Cc1ccc(CN2CCN(Cc3cn(C)nc3-c3ccccc3)CC2CCO)o1 (centres undefined) in this assay.
Output: inactive

Task: What classification did `CCOc1ccc(/C=N\NC(=O)c2c(C)nc3cc(C)ccn23)cc1` end up with in this test?
Output: inactive

Task: Call for entry `C[C@H](CO)N1C[C@H](C)[C@H](CN(C)C(=O)C2CC2)OCc2ccccc2-c2ccccc2C1=O` :
Output: inactive

Task: Per the assay record, what outcome was assigned to `O=C(C[C@H]1C=C[C@H](NC(=O)Nc2cc(F)ccc2F)[C@H](CO)O1)Nc1ccccc1` ?
Output: inactive

Task: What did the test return for `CCCN1C[C@@H](C)[C@@H](OC)CN(C)C(=O)c2ccc(NC(=O)Nc3cccc(F)c3)cc2OC[C@@H]1C` ?
Output: inactive

Task: What is the recorded call for this compound in the test? `COc1ccc(C(=O)COC(=O)COc2ccc(C)c(C)c2)cc1`
Output: inactive

Task: Please share the test call associated with `COc1cccc(C(=O)NNS(=O)(=O)c2ccc(F)cc2)c1` .
Output: inactive

Task: What was the test verdict on `O=C(Nc1cccc(Cl)c1)c1cncn1-c1ccc(F)cc1` ?
Output: inactive

Task: Which outcome was assigned to `C[C@H](CO)N1C[C@H](C)[C@H](CN(C)C(=O)Nc2ccc(F)cc2)Oc2ncc(-c3cc4ccccc4o3)cc2C1=O` in this test?
Output: inactive

Task: Hi team, can someone confirm the assay call for `C[C@@H]1CCCCO[C@H](CN(C)S(=O)(=O)c2ccc(Cl)cc2)[C@H](C)CN([C@@H](C)CO)C(=O)c2cc(NS(=O)(=O)c3cn(C)cn3)ccc2O1` ?
Output: inactive

Task: Recorded test outcome, item `CC(=O)N1[C@@H](CO)[C@@H](c2ccccc2)[C@@H]1CN(C)C(=O)CN1CCOCC1`
Output: inactive
